- testedSystem: T1, monomeric huBDCA2 ectodomain (human, UniProt Q8WTT0 45-213)
- T1 construct: Prepared by proteolytic cleavage of the purified muIgG2a Fc-huBDCA2 fusion protein (pEAG2423); also called human BDCA2 ectodomain; human BDCA2 ECD
- T1 sequence: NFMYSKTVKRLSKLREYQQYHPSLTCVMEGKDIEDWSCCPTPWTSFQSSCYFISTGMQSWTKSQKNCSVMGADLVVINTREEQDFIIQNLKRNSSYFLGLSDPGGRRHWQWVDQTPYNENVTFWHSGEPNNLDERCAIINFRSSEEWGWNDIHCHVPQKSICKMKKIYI
- assayProtocol: Octet, mAb from conditioned medium on anti-human Fc tips, monomeric huBDCA2 in solution
Provide the reported Kd of each item.
Your answer is read as pM, so omit the unit and give the number.

Task: Which Kd value is on record for hu24F4 H4/L1 S95V (antibody, human IgG1, V domains shown, Human IgG1/kappa; conditioned medium of 293E cells; also called H4-L1-C95V (YL752/YL746)) VH: DVQLVESGGGLVKPGGSLRLSCAASGFTFSTYTMSWVRQAPGKGLEWVATISPGDSFGYYYPDSVQGRFTISRDNAKNSLYLQMNSLRAEDTAVYYCTRDIYYNYGAWFAYWGQGTLVTVSS VL: DIQLTQSPSSLSASVGDRVTITCKASQSVDYDGDSYMNWYQQKPGKAPKLLIYAASTLESGVPSRFSGSGSGTDFTLTISSLQPEDFATYYCQQVNEDPRTFGQGTKVEIK ?
Result: 323

Task: Which Kd value is on record for hu24F4 H4/L1 S95C (antibody, human IgG1, V domains shown, Human IgG1/kappa; conditioned medium of 293E cells; also called H4-L1-S95C (YL749/YL746)) VH: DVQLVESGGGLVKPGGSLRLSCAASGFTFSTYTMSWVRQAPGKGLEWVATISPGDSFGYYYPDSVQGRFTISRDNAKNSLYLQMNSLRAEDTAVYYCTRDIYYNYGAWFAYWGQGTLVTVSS VL: DIQLTQSPSSLSASVGDRVTITCKASQSVDYDGDSYMNWYQQKPGKAPKLLIYAASTLESGVPSRFSGSGSGTDFTLTISSLQPEDFATYYCQQCNEDPRTFGQGTKVEIK ?
Result: 289

Task: Which Kd value is on record for hu24F4 H4/L1 S95T (antibody, human IgG1, V domains shown, Human IgG1/kappa; conditioned medium of 293E cells; also called H4-L1-C95T (YL750/YL746); hu24F4 H4/L1 C95T) VH: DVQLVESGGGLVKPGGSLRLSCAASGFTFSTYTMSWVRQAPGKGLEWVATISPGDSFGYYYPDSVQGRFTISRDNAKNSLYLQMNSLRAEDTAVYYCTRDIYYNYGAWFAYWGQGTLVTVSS VL: DIQLTQSPSSLSASVGDRVTITCKASQSVDYDGDSYMNWYQQKPGKAPKLLIYAASTLESGVPSRFSGSGSGTDFTLTISSLQPEDFATYYCQQTNEDPRTFGQGTKVEIK ?
Result: 392

Task: Which Kd value is on record for hu24F4 H4/L1 (C95S) (antibody, V domains shown, Human IgG1/kappa; also called 24F4-H4/L1 (YL740/YL746); 24F4S) VH: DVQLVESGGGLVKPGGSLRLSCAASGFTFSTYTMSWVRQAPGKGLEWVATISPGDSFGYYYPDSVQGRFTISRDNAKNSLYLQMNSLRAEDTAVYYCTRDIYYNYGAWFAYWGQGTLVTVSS VL: DIQLTQSPSSLSASVGDRVTITCKASQSVDYDGDSYMNWYQQKPGKAPKLLIYAASTLESGVPSRFSGSGSGTDFTLTISSLQPEDFATYYCQQSNEDPRTFGQGTKVEIK ?
Result: 548
